All figures here come from ChEMBL document CHEMBL5303300.

Tested on: U2OS
experiment description: Multiplex assay against U2OS
Assay type: toxicity, cell-based
experimental conditions: human, 12 h, 1 µM, compound concentration 1 uM, number of replicates 2
Listing: Population Membrane Permeable-Phenotype (%) of selected molecules
Please respond with the number in % and leave the unit unwritten.

molecule=C[C@H](N)Cn1ccc2cc(F)c(Cl)cc21.O=C(O)/C=C/C(=O)O readout_value=0
molecule="Br.Cc1cccc(C2CN(C)CCc3c2cc(O)c(O)c3Cl)c1 (stereo not drawn)" readout_value=0

Pending molecule:
Record lookup: for U2OS, what Population Membrane Permeable-Phenotype (%) belongs to CN1CCc2cc(Cl)c(O)cc2[C@@H](c2ccccc2)C1.Cl ?
0
